Sourced from the supplement of paper PMC12669032

tested on: Clostridium difficile; experiment: growth AUC relative to DMSO control (median of replicates) (fraction); higher = more growth (less inhibition), active = hit call of the paper; settings: 20 µM; 24 h;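 active = AUC reduced over 20% with Padj below 0.05 in at least 2 of 3 replicates; inactive = otherwise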
Outcome codes: yes (1) (active), no (0) (inactive)

# molecule, qualitative_label
records = [
    ("CC(C)c1cc(Oc2ccccc2)cc(C(C)C)c1NC(=S)NC(C)(C)C", "no (0)"),
    ("CCOC(=O)C(C)Oc1ccc(Oc2cnc3cc(Cl)ccc3n2)cc1 (stereo not given)", "no (0)"),
    ("O=C(O)Cc1c(Cl)ccc(Cl)c1Cl", "no (0)"),
    ("Cc1nc(C(F)(F)F)c(C(=O)Nc2c(Br)cc(OC(F)(F)F)cc2Br)s1", "no (0)"),
    ("O=C(O)c1ccc(Cl)cc1Cl", "no (0)"),
    ("CC(=O)Oc1c(Cl)c(Cl)c(Cl)c(Cl)c1Cl", "yes (1)"),
    ("O=[N+]([O-])c1ccc2c(c1)Cc1ccccc1-2", "no (0)"),
    ("CCCCCCCC/C=C\\CCCCCCCCCCCCC", "no (0)"),
    ("CCOC(=O)NCCOc1ccc(Oc2ccccc2)cc1", "no (0)"),
    ("O=C1NCC[n+]2ccccc21.[Br-]", "no (0)"),
    ("O=C(O)COc1ccc(Cl)c2cccnc12", "no (0)"),
    ("O=c1oc(-c2ccccc2)nc2ccccc12", "no (0)"),
    ("FC(F)(F)/N=C1\\SC(=Nc2ccccc2)N(c2ccccc2)\\C1=N\\C(F)(F)F", "no (0)"),
    ("Cc1nn(C)c(Oc2ccccc2)c1/C=N/OCc1ccc(C(=O)OC(C)(C)C)cc1", "no (0)"),
    ("CC[N+](CC)(CC(=O)Nc1c(C)cccc1C)Cc1ccccc1.O=C([O-])c1ccccc1", "no (0)"),
]
